- ASSAY_SYSTEM: Recombinant full length human OGA enzyme (Homo sapiens (Human))
- TEST_SUMMARY: OGA Enzyme Inhibition Biochemical Assay
- CONDITION_INFO: 1 nM OGA, 100 μM 4-MUGlcNAc, pH 6.4
IC50 reference
PROPERTY_MEASURED: IC50

COMPOUND: CC(=O)Nc1ncc(CN2C[C@H](Oc3ccc(F)cn3)C[C@@H]2C)s1
PROPERTY_MEASURED: IC50
VAL: < 1 nM
--
COMPOUND: [2H]C(c1cnc(NC(C)=O)s1)N1C[C@H](Oc2cc(OC)ncn2)C[C@@H]1C (single isomer, unassigned)
PROPERTY_MEASURED: IC50
VAL: < 1 nM
--
COMPOUND: CC(=O)Nc1nc(F)c(CN2C[C@H](Oc3cc(N4CCOCC4)ncn3)C[C@@H]2C)s1
PROPERTY_MEASURED: IC50
VAL: < 1 nM
--
COMPOUND: CC(=O)Nc1ncc(CN2C[C@H](Oc3cc(C)nc(C)c3)C[C@H]2C)s1
PROPERTY_MEASURED: IC50
VAL: 7 nM

====

pIC50 reference
- ASSAY_SYSTEM: OGA (S400 O-GLCNAC), HEK-293T cells transfected with Tau-V5 (Homo sapiens (Human), UniProt O60502)
- Sequence (O60502 whole entry): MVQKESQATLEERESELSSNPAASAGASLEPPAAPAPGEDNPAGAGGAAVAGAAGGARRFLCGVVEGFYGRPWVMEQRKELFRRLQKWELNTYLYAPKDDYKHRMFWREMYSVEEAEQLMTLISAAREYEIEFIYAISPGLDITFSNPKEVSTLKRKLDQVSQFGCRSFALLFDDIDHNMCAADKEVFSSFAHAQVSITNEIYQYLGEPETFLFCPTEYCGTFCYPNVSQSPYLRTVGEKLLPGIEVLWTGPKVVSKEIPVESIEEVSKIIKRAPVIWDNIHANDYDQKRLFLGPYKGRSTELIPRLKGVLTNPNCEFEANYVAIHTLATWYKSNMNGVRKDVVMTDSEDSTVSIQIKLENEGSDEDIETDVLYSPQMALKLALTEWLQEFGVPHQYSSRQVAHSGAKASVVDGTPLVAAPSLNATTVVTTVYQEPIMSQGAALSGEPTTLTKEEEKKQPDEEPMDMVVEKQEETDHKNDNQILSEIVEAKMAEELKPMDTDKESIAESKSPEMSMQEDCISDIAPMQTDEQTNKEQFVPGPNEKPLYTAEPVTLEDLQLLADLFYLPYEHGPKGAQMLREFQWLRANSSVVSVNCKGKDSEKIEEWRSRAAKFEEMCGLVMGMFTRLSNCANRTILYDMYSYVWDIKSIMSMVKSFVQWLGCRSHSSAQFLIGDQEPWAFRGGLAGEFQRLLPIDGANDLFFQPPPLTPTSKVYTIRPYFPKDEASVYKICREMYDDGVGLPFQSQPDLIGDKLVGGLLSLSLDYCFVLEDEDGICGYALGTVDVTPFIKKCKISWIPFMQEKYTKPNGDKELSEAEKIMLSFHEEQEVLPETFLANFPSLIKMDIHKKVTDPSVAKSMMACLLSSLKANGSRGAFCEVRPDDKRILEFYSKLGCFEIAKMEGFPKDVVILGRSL
- TEST_SUMMARY: Cellular OGA-Tau MSD Assay
- Format: cell-based
- CONDITION_INFO: HEK-293T cells, Tau-S400-GlcNAc MSD readout
pIC50: −log10 of the molar value.

MOLECULE: CC(=O)Nc1ncc(CN2C[C@@H](Oc3ccc(F)cn3)C[C@H]2C)s1
LIMIT_OPERATOR: <
pIC50: 6.00

MOLECULE: CC(=O)Nc1nc(F)c(CN2C[C@H](Oc3cc(O)ncn3)C[C@@H]2C)s1
LIMIT_OPERATOR: =
pIC50: 8.10

MOLECULE: CC(=O)Nc1ncc(CN2C[C@H](Oc3cc(F)ncn3)C[C@@H]2C)s1
LIMIT_OPERATOR: =
pIC50: 8.22

MOLECULE: [2H]C([2H])([2H])Oc1cc(O[C@@H]2C[C@H](C)N(Cc3cnc(NC(C)=O)s3)C2)ncn1 (single isomer, unassigned)
LIMIT_OPERATOR: =
pIC50: 8.70

====

- ASSAY_SYSTEM: OGA (S400 O-GLCNAC), HEK-293T cells transfected with Tau-V5 (Homo sapiens (Human), UniProt O60502)
- TEST_SUMMARY: Cellular OGA-Tau MSD Assay
- Assay type: cell-based
- CONDITION_INFO: HEK-293T cells, Tau-S400-GlcNAc MSD readout
pIC50: −log10 of the molar value.

STRUCTURE_SMILES_STRING: COc1cc(O[C@@H]2C[C@@H](C)N(Cc3cnc(NC(C)=O)s3)C2)ncn1
LIMIT_OPERATOR: <
pIC50: 6.00
--
STRUCTURE_SMILES_STRING: CC(=O)Nc1ncc(CN2C[C@H](Oc3cc(OC4COC4)ncn3)C[C@@H]2C)s1
LIMIT_OPERATOR: =
pIC50: 8.52
--
STRUCTURE_SMILES_STRING: CC(=O)Nc1ncc(CN2C[C@H](Oc3cc(N4CCOCC4)ncn3)C[C@@H]2C)s1
LIMIT_OPERATOR: =
pIC50: 8.52
--
STRUCTURE_SMILES_STRING: COc1cc(O[C@@H]2C[C@H](C)N(Cc3cnc(NC(C)=O)s3)C2)ncn1
LIMIT_OPERATOR: =
pIC50: 8.70
--
STRUCTURE_SMILES_STRING: COc1ccc(O[C@@H]2C[C@H](C)N(Cc3sc(NC(C)=O)nc3F)C2)nn1
LIMIT_OPERATOR: =
pIC50: 9.00
--
STRUCTURE_SMILES_STRING: CC(=O)Nc1nc(F)c(CN2C[C@H](Oc3cc(N4CC(F)C4)ncn3)C[C@@H]2C)s1
LIMIT_OPERATOR: >
pIC50: 9.00

====

- Tested on: P-gp (MDR1)
- TEST_SUMMARY: MDR1-MDCK Efflux Ratio Assay
- Format: in vitro ADME
- CONDITION_INFO: dog, MDCK-MDR1, pH 7.4, MDR1-MDCK cells, 2 hr, pH 7.4; read-out: MDR1-MDCK Efflux Ratio (B-A/A-B)

COMPOUND: CC(=O)Nc1ncc(CN2C[C@H](Oc3ccnc(OC(F)F)c3)C[C@@H]2C)s1 [Example 1-20]
efflux ratio at 2 h: 2.9
--
COMPOUND: CC(=O)Nc1nc(F)c(CN2C[C@@H](Oc3cc(C)nc(C)c3)C[C@@H]2C)s1 [Example 1-52]
efflux ratio at 2 h: 12.9
--
COMPOUND: COc1ccc(O[C@@H]2C[C@H](C)N(Cc3cnc(NC(C)=O)s3)C2)nn1 [Example 1-68]
efflux ratio at 2 h: 28.6
--
COMPOUND: CC(=O)Nc1ncc(CN2C[C@@H](Oc3cc(C)nc(C)c3)C[C@@H]2C)s1 [Example 1-62]
efflux ratio at 2 h: 65
--
COMPOUND: CC(=O)Nc1ncc(CN2C[C@H](Oc3cc(F)ncn3)C[C@@H]2C)s1 [Example 1-78]
efflux ratio at 2 h: 4.1

====

- ASSAY_SYSTEM: Recombinant full length human OGA enzyme (Homo sapiens (Human), UniProt O60502)
- Sequence (O60502 whole entry): as above
- TEST_SUMMARY: OGA Enzyme Inhibition Biochemical Assay
- CONDITION_INFO: 1 nM OGA, 100 μM 4-MUGlcNAc, pH 6.4
pIC50: −log10 of the molar value.
PROPERTY_MEASURED: pIC50

COMPOUND: COc1cccc(O[C@@H]2C[C@H](C)N(Cc3sc(NC(C)=O)nc3F)C2)n1 [Example 1-99]
ASSAY_SYSTEM: Recombinant full length human OGA enzyme (Homo sapiens (Human), UniProt O60502)
PROPERTY_MEASURED: pIC50
VAL: > 9.00

COMPOUND: CC(=O)Nc1ncc(CN2CCC[C@H](Oc3ccc(F)cn3)C2)s1 [Example 1-2]
ASSAY_SYSTEM: Recombinant full length human OGA enzyme (Homo sapiens (Human), UniProt O60502)
PROPERTY_MEASURED: pIC50
VAL: 6.68

COMPOUND: CC(=O)Nc1nc(F)c(CN2C[C@H](Oc3cncnc3)C[C@@H]2C)s1 [Example 1-119]
ASSAY_SYSTEM: Recombinant full length human OGA enzyme (Homo sapiens (Human), UniProt O60502)
PROPERTY_MEASURED: pIC50
VAL: 8.89

COMPOUND: CC(=O)Nc1ncc(CN2C[C@@H](Oc3ccc(C)nc3)C[C@H]2C)s1 (stereo in doubt) [Example 1-116]
ASSAY_SYSTEM: Recombinant full length human OGA enzyme (Homo sapiens (Human), UniProt O60502)
PROPERTY_MEASURED: pIC50
VAL: > 9.00

COMPOUND: COc1ccc(O[C@@H]2C[C@H](C)N(Cc3cnc(NC(C)=O)s3)C2)nn1 [Example 1-68]
ASSAY_SYSTEM: Recombinant full length human OGA enzyme (Homo sapiens (Human), UniProt O60502)
PROPERTY_MEASURED: pIC50
VAL: > 9.00

COMPOUND: CCC(=O)Nc1nc(F)c(CN2CC[C@@H](Oc3cc(OC)ncn3)C2)s1 [Example 1-45]
ASSAY_SYSTEM: Recombinant full length human OGA enzyme (Homo sapiens (Human), UniProt O60502)
PROPERTY_MEASURED: pIC50
VAL: 7.33

COMPOUND: COc1cc(O[C@@H]2C[C@H](C)N(Cc3sc(NC(C)=O)nc3F)C2)ncc1F [Example 1-118]
ASSAY_SYSTEM: Recombinant full length human OGA enzyme (Homo sapiens (Human), UniProt O60502)
PROPERTY_MEASURED: pIC50
VAL: > 9.00

COMPOUND: CC(=O)Nc1nc(F)c(CN2C[C@H](Oc3ccc(Cl)cn3)C[C@@H]2C)s1 [Example 1-90]
ASSAY_SYSTEM: Recombinant full length human OGA enzyme (Homo sapiens (Human), UniProt O60502)
PROPERTY_MEASURED: pIC50
VAL: > 9.00

COMPOUND: CC(=O)Nc1nc(F)c(CN2C[C@H](Oc3ccc(F)nn3)C[C@@H]2C)s1 [Example 1-111]
ASSAY_SYSTEM: Recombinant full length human OGA enzyme (Homo sapiens (Human), UniProt O60502)
PROPERTY_MEASURED: pIC50
VAL: > 9.00

COMPOUND: CC(=O)Nc1ncc(CN2C[C@@H](Oc3cc(C)nc(C)c3)CC[C@@H]2C)s1 [Example 1-66]
ASSAY_SYSTEM: Recombinant full length human OGA enzyme (Homo sapiens (Human), UniProt O60502)
PROPERTY_MEASURED: pIC50
VAL: > 9.00

COMPOUND: COc1cc(O[C@@H]2C[C@@H](C)N(Cc3sc(NC(C)=O)nc3F)C2)ncn1 [Example 1-29]
ASSAY_SYSTEM: Recombinant full length human OGA enzyme (Homo sapiens (Human), UniProt O60502)
PROPERTY_MEASURED: pIC50
VAL: 7.24

COMPOUND: CC(=O)Nc1ncc(CN2C[C@H](Oc3cc(NC(C)C)ncn3)C[C@@H]2C)s1 [Example 1-136]
ASSAY_SYSTEM: Recombinant full length human OGA enzyme (Homo sapiens (Human), UniProt O60502)
PROPERTY_MEASURED: pIC50
VAL: > 9.00

COMPOUND: CC(=O)Nc1nc(F)c(CN2C[C@H](Oc3ncc(F)cn3)C[C@@H]2C)s1 [Example 1-112]
ASSAY_SYSTEM: Recombinant full length human OGA enzyme (Homo sapiens (Human), UniProt O60502)
PROPERTY_MEASURED: pIC50
VAL: > 9.00

COMPOUND: CC(=O)Nc1ncc(CN2C[C@H](Oc3ccnc(OC(F)F)c3)C[C@@H]2C)s1 [Example 1-20]
ASSAY_SYSTEM: Recombinant full length human OGA enzyme (Homo sapiens (Human), UniProt O60502)
PROPERTY_MEASURED: pIC50
VAL: > 9.00

COMPOUND: [2H]C([2H])(c1sc(NC(C)=O)nc1F)N1C[C@H](Oc2cc(OC)ncn2)C[C@@H]1C (single isomer, unassigned) [Example 1-161]
ASSAY_SYSTEM: Recombinant full length human OGA enzyme (Homo sapiens (Human), UniProt O60502)
PROPERTY_MEASURED: pIC50
VAL: > 9.00

COMPOUND: CC(=O)Nc1nc(F)c(CN2CCC[C@@H](Oc3cc(C)nc(C)c3)C2)s1 [Example 1-55]
ASSAY_SYSTEM: Recombinant full length human OGA enzyme (Homo sapiens (Human), UniProt O60502)
PROPERTY_MEASURED: pIC50
VAL: 8.96

COMPOUND: CC(=O)Nc1ncc(CN2C[C@H](Oc3cc(C)c(F)cn3)C[C@@H]2C)s1 [Example 1-87]
ASSAY_SYSTEM: Recombinant full length human OGA enzyme (Homo sapiens (Human), UniProt O60502)
PROPERTY_MEASURED: pIC50
VAL: > 9.00

COMPOUND: [2H]C(c1sc(NC(C)=O)nc1F)N1C[C@H](Oc2cc(OC)ncn2)C[C@@H]1C (single isomer, unassigned) [Example 1-159]
ASSAY_SYSTEM: Recombinant full length human OGA enzyme (Homo sapiens (Human), UniProt O60502)
PROPERTY_MEASURED: pIC50
VAL: > 9.00

COMPOUND: CC(=O)Nc1ncc(CN2CC[C@H](Oc3ccc(F)cn3)C2)s1 [Example 1-7]
ASSAY_SYSTEM: Recombinant full length human OGA enzyme (Homo sapiens (Human), UniProt O60502)
PROPERTY_MEASURED: pIC50
VAL: < 6.00

COMPOUND: CC(=O)Nc1nc(F)c(CN2C[C@H](Oc3cc(F)c(F)cn3)C[C@@H]2C)s1 [Example 1-102]
ASSAY_SYSTEM: Recombinant full length human OGA enzyme (Homo sapiens (Human), UniProt O60502)
PROPERTY_MEASURED: pIC50
VAL: > 9.00

COMPOUND: COc1ncnc(O[C@@H]2C[C@H](C)N(Cc3cnc(NC(C)=O)s3)C2)c1C [Example 1-71]
ASSAY_SYSTEM: Recombinant full length human OGA enzyme (Homo sapiens (Human), UniProt O60502)
PROPERTY_MEASURED: pIC50
VAL: 8.77

COMPOUND: CC(=O)Nc1ncc(CN2C[C@H](Oc3ncc(C)nc3C)C[C@@H]2C)s1 [Example 1-81]
ASSAY_SYSTEM: Recombinant full length human OGA enzyme (Homo sapiens (Human), UniProt O60502)
PROPERTY_MEASURED: pIC50
VAL: 8.08

COMPOUND: CC(=O)Nc1ncc(CN2C[C@H](Oc3cc(C)nc(C)c3)C[C@@H]2C)s1 [Example 1-60]
ASSAY_SYSTEM: Recombinant full length human OGA enzyme (Homo sapiens (Human), UniProt O60502)
PROPERTY_MEASURED: pIC50
VAL: > 9.00

COMPOUND: CC(=O)Nc1ncc(CN2C[C@H](Oc3cc(OC4CN(C)C4)ncn3)C[C@@H]2C)s1 [Example 1-125]
ASSAY_SYSTEM: Recombinant full length human OGA enzyme (Homo sapiens (Human), UniProt O60502)
PROPERTY_MEASURED: pIC50
VAL: 8.85

COMPOUND: COc1cc(O[C@H]2CCCN(Cc3cnc(NC(C)=O)s3)C2)ncn1 [Example 1-41]
ASSAY_SYSTEM: Recombinant full length human OGA enzyme (Homo sapiens (Human), UniProt O60502)
PROPERTY_MEASURED: pIC50
VAL: 7.62
